- Measurement description: Rota rod test
- Assay type: in vivo, mouse
- Test parameters: male, ddY, mouse, in vivo, intraperitoneal; route i.p; dose at which fall off latency shorten by 50% of vehicle control value

Compound: NS(=O)(=O)NC1c2c(Cl)cccc2CC1(F)F (single isomer, unassigned; (-)) [Example 8]
TD50 (mg/kg): 119

* * *

- Tested on: male ddY mice
- Measurement description: Rota rod test
- Assay type: in vivo, mouse
- Test parameters: route p.o.; TD50 in rota rod test divided by ED50 in corneal kindling model

Molecule: NS(=O)(=O)N[C@H]1CCc2cc(F)cc(Cl)c21 [Example 21]
Qualifier symbol: =
Therapeutic index: 22.1
--
Molecule: NS(=O)(=O)NC1CCc2ccccc21 (stereo not shown) [Reference compound, reference compound]
Qualifier symbol: =
Therapeutic index: 5.27
--
Molecule: NS(=O)(=O)N[C@H]1c2c(F)ccc(F)c2CC1(F)F [Example 2]
Qualifier symbol: >
Therapeutic index: 13.0
--
Molecule: Cc1cccc2c1[C@H](NS(N)(=O)=O)C(F)(F)C2 [Example 11]
Qualifier symbol: =
Therapeutic index: 26.4
--
Molecule: NS(=O)(=O)NC1c2c(ccc(F)c2F)CC1(F)F (single isomer, unassigned; (-)) [Example 5]
Qualifier symbol: =
Therapeutic index: 70.9
--
Molecule: NS(=O)(=O)N[C@H]1CCc2c(F)ccc(F)c21 [Example 19]
Qualifier symbol: =
Therapeutic index: 19.0
--
Molecule: NS(=O)(=O)N[C@H]1c2c(F)cc(F)cc2CC1(F)F [Example 1]
Qualifier symbol: =
Therapeutic index: 49.4
--
Molecule: Cc1cc(F)cc2c1[C@H](NS(N)(=O)=O)C(F)(F)C2 [Example 12]
Qualifier symbol: =
Therapeutic index: 25.5
--
Molecule: NS(=O)(=O)NC1CCc2c(F)cc(F)c(F)c21 (single isomer, unassigned; (-)) [Example 29]
Qualifier symbol: =
Therapeutic index: 9.93
--
Molecule: NS(=O)(=O)NC1c2c(Cl)cc(F)cc2CC1(F)F (single isomer, unassigned; (-)) [Example 6]
Qualifier symbol: =
Therapeutic index: 30.1

* * *

- Measurement description: Rota rod test
- Assay type: in vivo, mouse
- Test parameters: male, ddY, mouse, in vivo, po; dose at which fall off latency shorten by 50% of vehicle control value
Quick rule for you: TD50 under 200 mg/kg gets T, anything else gets F.

Compound: NS(=O)(=O)NC1c2c(Cl)cc(F)cc2CC1(F)F (single isomer, unassigned; (-))
Classification: F
--
Compound: Cc1cccc2c1[C@H](NS(N)(=O)=O)C(F)(F)C2
Classification: T
--
Compound: NS(=O)(=O)N[C@H]1c2c(F)cc(F)cc2CC1(F)F
Classification: F
--
Compound: NS(=O)(=O)NC1CCc2c(F)cc(F)c(F)c21 (single isomer, unassigned; (-))
Classification: T
--
Compound: NS(=O)(=O)N[C@H]1CCc2cc(F)cc(Cl)c21
Classification: F
--
Compound: NS(=O)(=O)NC1c2c(ccc(F)c2F)CC1(F)F (single isomer, unassigned; (-))
Classification: F
--
Compound: NS(=O)(=O)N[C@H]1c2c(F)ccc(F)c2CC1(F)F
Classification: F
--
Compound: NS(=O)(=O)N[C@H]1CCc2c(F)ccc(F)c21
Classification: F
--
Compound: Cc1cc(F)cc2c1[C@H](NS(N)(=O)=O)C(F)(F)C2
Classification: T
--
Compound: NS(=O)(=O)NC1CCc2ccccc21 (stereo not shown) [Reference compound, reference compound]
Classification: F
